Test system: Mus musculus
Experiment: Phototoxicity in ip dosed mouse
Type: organism-based
Conditions: in vivo
Answer each item with its documented MED.
Give bare numbers, in mg/kg.

>>> reported_measurement("C=C[C@H]1CN2CC[C@H]1C[C@H]2[C@H](O)c1cc(-c2ccccc2)nc2ccc(OC)cc12")
10
>>> reported_measurement("CCCCN(CCCC)CC(O)c1c(C)cnc2c1ccc1cccc(Cl)c12.Cl (stereo not given)")
200
>>> reported_measurement("CCCCN(CCCC)CC(O)c1cc(C(C)(C)C)nc2c1cc(C)c1ccccc12.O=C(O)C(=O)O (stereo not given)")
300
>>> reported_measurement("CCCCN(CCCC)CC(O)c1c(C)cnc2c1cc(Cl)c1ccccc12.Cl (stereo not given)")
400
>>> reported_measurement("CCCCN(CCCC)CC(O)c1cc(-c2cc(OC)c(OC)c(OC)c2)nc2c1cc(Cl)c1ccccc12.Cl (stereo not given)")
80

Batch request: MED for each of the following compounds.
1. CCCCN(CCCC)CC(O)c1cc(-c2ccc(C)cc2C)nc2c1ccc1ccccc12.Cl (stereo not given)
2. CCCCN(CCCC)CC(O)c1cc(C(C)(C)C)nc2c1ccc1ccccc12.O=C(O)C(=O)O (stereo not given)
3. CCCCN(CCCC)CC(O)c1cc(C(C)(C)C)nc2c1cc(Cl)c1ccccc12.O=C(O)C(=O)O (stereo not given)

1: 300; 2: 100; 3: 100
